target.under.test: fungal (fACC2) (UniProt Q00955)
Sequence (Q00955 whole entry): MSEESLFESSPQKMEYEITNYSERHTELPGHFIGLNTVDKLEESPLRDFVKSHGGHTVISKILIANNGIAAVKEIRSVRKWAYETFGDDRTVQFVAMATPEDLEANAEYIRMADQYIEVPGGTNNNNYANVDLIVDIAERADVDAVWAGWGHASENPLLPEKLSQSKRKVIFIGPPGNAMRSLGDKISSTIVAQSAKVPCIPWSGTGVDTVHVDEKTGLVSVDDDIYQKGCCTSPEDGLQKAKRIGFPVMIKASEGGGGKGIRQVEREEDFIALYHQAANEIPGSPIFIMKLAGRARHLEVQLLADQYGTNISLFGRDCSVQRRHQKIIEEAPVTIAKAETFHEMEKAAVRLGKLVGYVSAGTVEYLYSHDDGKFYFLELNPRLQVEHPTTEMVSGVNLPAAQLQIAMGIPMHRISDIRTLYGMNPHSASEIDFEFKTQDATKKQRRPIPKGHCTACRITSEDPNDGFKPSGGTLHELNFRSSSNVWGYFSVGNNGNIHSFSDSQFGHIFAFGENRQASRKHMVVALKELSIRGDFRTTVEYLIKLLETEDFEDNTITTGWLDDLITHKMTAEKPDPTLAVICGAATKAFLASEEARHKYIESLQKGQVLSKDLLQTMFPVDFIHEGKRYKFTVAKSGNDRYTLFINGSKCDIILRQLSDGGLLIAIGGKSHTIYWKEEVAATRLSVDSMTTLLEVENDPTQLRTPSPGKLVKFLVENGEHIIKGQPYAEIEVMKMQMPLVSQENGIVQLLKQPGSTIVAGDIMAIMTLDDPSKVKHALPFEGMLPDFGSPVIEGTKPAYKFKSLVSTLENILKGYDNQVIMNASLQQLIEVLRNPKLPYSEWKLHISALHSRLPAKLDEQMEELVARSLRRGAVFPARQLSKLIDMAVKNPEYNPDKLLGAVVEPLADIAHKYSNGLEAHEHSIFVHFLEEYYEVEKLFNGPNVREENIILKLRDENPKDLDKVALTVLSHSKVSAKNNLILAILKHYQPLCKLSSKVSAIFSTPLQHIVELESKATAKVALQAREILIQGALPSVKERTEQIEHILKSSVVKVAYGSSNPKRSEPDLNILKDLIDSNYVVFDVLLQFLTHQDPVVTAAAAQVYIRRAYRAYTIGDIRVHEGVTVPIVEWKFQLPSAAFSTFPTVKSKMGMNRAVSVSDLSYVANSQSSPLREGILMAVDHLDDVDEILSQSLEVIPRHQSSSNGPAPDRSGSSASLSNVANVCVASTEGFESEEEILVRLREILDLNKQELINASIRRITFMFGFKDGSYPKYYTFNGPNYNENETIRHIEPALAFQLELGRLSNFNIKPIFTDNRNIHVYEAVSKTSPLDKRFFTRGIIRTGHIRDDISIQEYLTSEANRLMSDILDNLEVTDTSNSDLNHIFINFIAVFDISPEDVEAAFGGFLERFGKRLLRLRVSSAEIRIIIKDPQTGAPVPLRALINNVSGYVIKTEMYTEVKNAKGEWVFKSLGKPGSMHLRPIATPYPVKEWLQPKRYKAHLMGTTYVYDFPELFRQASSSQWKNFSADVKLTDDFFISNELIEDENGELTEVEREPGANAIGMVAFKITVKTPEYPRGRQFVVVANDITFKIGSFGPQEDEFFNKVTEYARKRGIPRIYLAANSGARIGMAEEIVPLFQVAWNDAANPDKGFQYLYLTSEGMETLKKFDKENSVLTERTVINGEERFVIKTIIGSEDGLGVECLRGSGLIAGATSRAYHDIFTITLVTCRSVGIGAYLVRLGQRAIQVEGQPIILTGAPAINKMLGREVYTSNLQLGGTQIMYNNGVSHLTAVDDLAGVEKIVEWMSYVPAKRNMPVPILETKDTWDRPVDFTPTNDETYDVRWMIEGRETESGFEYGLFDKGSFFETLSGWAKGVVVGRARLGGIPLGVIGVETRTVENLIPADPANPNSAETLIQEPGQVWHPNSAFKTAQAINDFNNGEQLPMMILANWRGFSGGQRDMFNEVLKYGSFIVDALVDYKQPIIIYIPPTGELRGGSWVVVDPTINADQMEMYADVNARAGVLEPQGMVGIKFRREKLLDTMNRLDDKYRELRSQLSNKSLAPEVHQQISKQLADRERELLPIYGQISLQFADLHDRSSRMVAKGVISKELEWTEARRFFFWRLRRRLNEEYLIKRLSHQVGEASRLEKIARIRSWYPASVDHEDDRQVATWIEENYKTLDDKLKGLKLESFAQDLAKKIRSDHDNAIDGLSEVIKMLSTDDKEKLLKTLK
recorded.conditions: read-out: fACC2 (in vitro ACC2 Inhibition Assay, IC50); Table 2b, additional results; ADP-Glo, 5 nM ACC2, 20 μM ATP, 20 μM acetyl-CoA
# IC50 values compiled below

Some solved entries appear below for comparison.
>  <compound>
COc1ccc(F)cc1[C@H](Cn1c(=O)n(C(C)(C)C(=O)NC(C)C)c(=O)c2c(C)c(-n3nccn3)sc21)OCC(C)(C)C#N [Compound I-154]

>  <target.under.test>
fungal (fACC2) (UniProt Q00955)

>  <IC50>
1 to 5 nM

$$$$
>  <compound>
CCc1ccc(F)cc1CCn1c(=O)n(C(C)(C)C(=O)NC(C)C)c(=O)c2c(C)c(-n3nccn3)sc21 [Compound I-276]

>  <target.under.test>
fungal (fACC2) (UniProt Q00955)

>  <IC50>
0.3 to 1 nM

$$$$

// next entry
The measured IC50 associated with COc1ccc(F)cc1[C@H](Cn1c(=O)n(C(C)(C)C(=O)N2CCCC2)c(=O)c2c(C)c(-n3nccn3)sc21)OC[C@H](C)O [Compound I-48] reads 0.3 to 1 nM

Data origin: patent US10800791B2
